Assay: Solubilities at room temperature (about 25°C) in various solvents
Assay type: physicochemical
Settings: organic solvent or mixture; ethanol, room temperature (about 25°C); read-out: Solubility in ethanol
metric: solubility (mg/mL)
Kindly answer with a numeric value in mg/mL, unit omitted.

Lookup: For the molecule CC(C)(C)C(=O)OCOC(=O)[C@@H]1N2C(=O)[C@@H](NC(=O)[C@H](N)c3ccccc3)[C@H]2SC1(C)C [pivampicillin] , what solubility is on record?
Found: 40

---

Experiment: Solubilities at room temperature (about 25°C) in various solvents
Format: physicochemical
Conditions: organic solvent or mixture; ether, room temperature (about 25°C); read-out: Solubility in ether
metric: solubility (µg/mL)
Kindly answer with a numeric value in µg/mL, unit omitted.

Lookup: For the compound `CC(C)(C)C(=O)OCOC(=O)[C@@H]1N2C(=O)[C@@H](NC(=O)[C@H](N)c3ccccc3)[C@H]2SC1(C)C` , what solubility is on record?
Found: 10000
